- assay: NCI Yeast Anticancer Drug Screen. Data for the mlh1 strain (AID 171)
- measurement-context: S. cerevisiae mlh1 strain growth inhibition; at 100.0 µM
The panel holds about 79,000 compounds, 15% with a hit somewhere; the sample as a whole holds those more often. Activity calls are given as the source filed them. Rule as the data show it: active = growth inhibition above about 70%; inactive = the rest.
Outcome codes: active, inactive

[
  {
    "compound": "O=C1Nc2ccc(Br)cc2C1=Nc1cccnc1",
    "class": "inactive"
  },
  {
    "compound": "c1ccc2c(c1)ccn2CCc1c[nH]c2ccccc12",
    "class": "active"
  },
  {
    "compound": "CC1=COC2=C(C)C(=O)C(=O)c3c(C)ccc1c32",
    "class": "active"
  },
  {
    "compound": "O=C(CN(c1ccccc1)c1ccccc1)n1nnc2ccccc21",
    "class": "active"
  },
  {
    "compound": "Nc1ccc(S(=O)(=O)Nc2nc3c(c(=O)[nH]2)CCCC3)cc1",
    "class": "active"
  },
  {
    "compound": "O=Cc1ccccc1C=O",
    "class": "active"
  },
  {
    "compound": "O=[N+]([O-])[O][Sn]([O][Sn]([O][N+](=O)[O-])([c]1ccccc1)[c]1ccccc1)([c]1ccccc1)[c]1ccccc1",
    "class": "active"
  },
  {
    "compound": "c1ccc2c(c1)N=C1CCCC3CCCC123 (stereo not drawn)",
    "class": "active"
  }
]

###

- assay: NCI Yeast Anticancer Drug Screen. Data for the mlh1 rad18 strain (AID 175)
- measurement-context: S. cerevisiae mlh1 rad18 strain growth inhibition; at 50.0 µM
The panel holds about 79,000 compounds, 15% with a hit somewhere; the sample as a whole holds those more often. Active and inactive are the calls of the source. No stated cut-off is given here; in the data, active means growth inhibition above about 70%; inactive means the rest.
Outcome codes: active, inactive

[
  {
    "compound": "COC(=O)C1CCCCC1C(=O)Nc1ccccc1 (centres undefined)",
    "class": "inactive"
  },
  {
    "compound": "O=[N+]([O-])c1ccc(C(c2c[nH]c3ccccc23)c2c[nH]c3ccccc23)cc1",
    "class": "active"
  },
  {
    "compound": "CCCNC(=O)OCc1c(COC(=O)NCCC)c(-c2ccc(Cl)c(Cl)c2)n2c1CCC2",
    "class": "inactive"
  },
  {
    "compound": "C[N+](C)([O-])CCCNc1c2ccccc2nc2cccc([N+](=O)[O-])c12",
    "class": "active"
  }
]

###

- assay: NCI Yeast Anticancer Drug Screen. Data for the rad14 strain (AID 159)
- measurement-context: S. cerevisiae rad14 strain growth inhibition; at 11.0 µM; active compounds read high
About 79,000 compounds went through this panel and 15% of them were active in at least one assay; those are over-represented in the sample as a whole.
Please use Yes whenever growth inhibition is not below 30%, and No whenever it is.

[
  {
    "compound": "O=C(O)c1ccc2cc(Cl)c3ccccc3c2c1",
    "class": "No"
  },
  {
    "compound": "COc1ccc(-c2cc(-c3cc(C)cc(Cl)c3O)nc3[nH]c(=S)[nH]c(=S)c23)cc1",
    "class": "No"
  },
  {
    "compound": "Cc1cc(C)c(S(=O)(=O)c2ccc(Cl)cc2)c(C)c1",
    "class": "No"
  },
  {
    "compound": "Clc1ccc(/C(=C\\c2ccccc2)Cn2ccnc2)cc1",
    "class": "Yes"
  },
  {
    "compound": "Nc1cccc(-c2cc[cH-]c2)c1.[Fe+2].c1cc[cH-]c1",
    "class": "No"
  },
  {
    "compound": "O=C(Cc1ccccc1)NNc1nc(NNC(=O)c2ccncc2)nc(Nc2ccc([N+](=O)[O-])cc2)n1",
    "class": "No"
  },
  {
    "compound": "COC(=O)C(Cl)(Cl)N=Nc1c(Cl)cc(Cl)c(C)c1Cl",
    "class": "Yes"
  },
  {
    "compound": "CCCNCC(=O)O[C@]1(CC)C(=O)OCc2c1cc1n(c2=O)Cc2cc3ccccc3nc2-1",
    "class": "No"
  },
  {
    "compound": "c1ccc(-c2cc(C3CO3)c3ccccc3n2)cc1 (configuration not stated)",
    "class": "No"
  },
  {
    "compound": "CC(C)(Br)C(=O)/C=C/c1ccccc1",
    "class": "No"
  },
  {
    "compound": "O=c1c2ccccc2nc(-c2cccc([N+](=O)[O-])c2)n1O",
    "class": "Yes"
  },
  {
    "compound": "O=C1NC(c2cccc(OCc3ccccc3)c2)Nc2ccccc21 (configuration not stated)",
    "class": "No"
  }
]
